Target desc: D(2) dopamine receptor (Homo sapiens) (UniProt P14416)
Sequence (P14416 whole entry, looked up): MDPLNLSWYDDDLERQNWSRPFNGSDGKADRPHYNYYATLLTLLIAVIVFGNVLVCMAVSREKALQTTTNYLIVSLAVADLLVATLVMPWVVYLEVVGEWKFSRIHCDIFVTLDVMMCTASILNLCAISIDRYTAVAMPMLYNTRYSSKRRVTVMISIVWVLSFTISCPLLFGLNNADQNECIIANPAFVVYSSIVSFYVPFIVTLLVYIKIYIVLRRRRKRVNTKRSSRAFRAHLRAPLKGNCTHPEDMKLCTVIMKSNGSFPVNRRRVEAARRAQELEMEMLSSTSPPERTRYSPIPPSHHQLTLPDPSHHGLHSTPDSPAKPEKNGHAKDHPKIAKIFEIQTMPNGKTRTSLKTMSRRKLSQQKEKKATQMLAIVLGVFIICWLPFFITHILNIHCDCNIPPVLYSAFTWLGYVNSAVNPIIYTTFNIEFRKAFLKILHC
Measurement description: HTS Assay for Allosteric Antagonists of the Human D2 Dopamine Receptor: Primary Screen for Antagonists; note: 0% is about no effect
Condition details: HEK293 TREx D2 cells, calcium flux, dopamine EC80; at 10 µM; stronger effect = higher value
The whole screen tested about 340,000 compounds, of which about 6,900 (2%) were called active. Shown is part of a subset that was picked to be rich in actives.

Molecule | inhibition / %
C=CCN1C(=O)c2ccc(C(=O)N3CCC(C(=O)OCC)CC3)cc2C1=O | 2.03
CCN(CC(=O)NCc1cccs1)C(=O)c1ccc(OC)c(S(=O)(=O)N2CCOCC2)c1 | 13.8
C=CCc1ccccc1OCC(O)CN1CCN(CCO)CC1 (stereo unspecified) | -21.6
CCc1sc(C(=O)N2CCN(CC(=O)Nc3cccc(F)c3)CC2)cc1C | 22.4
O=C(CNC(=O)C1COc2ccccc2O1)N/N=C/c1cc(Br)c(O)c(Br)c1 (stereo unspecified) | 7.94
O=C(c1ccc(Cl)cc1)c1ccc(OCC(O)CN2CCCCC2)cc1 (stereo unspecified) | 11.7
O=C1c2ccccc2C(=O)N1CCC#Cc1ccc2cc(C3(O)CCCCC3)oc(=O)c2c1 | -4.36
O=C(COC(=O)c1ncc(Cl)c(Cl)c1Cl)NCc1ccccc1 | 6.01
CC(Oc1ccc(Br)cc1)C(=O)NC1CCCCCC1 (stereo unspecified) | -1.39
COc1ccc(C)cc1NC(=O)CSc1nnc2ccc(-c3ccccn3)nn12 | 24.5
COc1ccc2oc(C(=O)OCC(=O)N(CC(C)C)c3c(N)n(Cc4ccccc4)c(=O)[nH]c3=O)c(C)c2c1 | -27.2
C=C1CCC(N(O)c2cc(C)on2)C(=C)CCC2C1CC2(C)C (stereo unspecified) | -0.609
Cc1c(CC(=O)N2CCN(C(=O)C3COc4ccccc4O3)CC2)c(=O)oc2c(O)c(O)ccc12 (stereo unspecified) | 60
Cc1ccc(-c2nn(-c3ccccc3)cc2C(=O)NC2CCC(O)CC2)cc1 (stereo unspecified) | 11.3
C[C@H](NC(=O)c1ccccc1Cl)C(=O)OCC(=O)N1CCN(c2ccccc2)CC1 | 8.27
CCCCOC(=O)c1[nH]c(C)c(C(=O)OC)c1C | -12.8
COc1cc(C(C)=O)ccc1OC(C)C(=O)Nc1ccc(S(=O)(=O)N2CCCC2)cc1 (stereo unspecified) | -10.1
COc1cccc(NC(=O)CN(C)CC(=O)c2c(N)n(Cc3ccccc3)c(=O)n(C)c2=O)c1 | -15.4
Cc1ccc(NC(=S)NC(=O)/C=C/c2ccc(Cl)cc2)cc1 | -2.32
Cc1c(C)c2ccc(OCC(=O)N3CCC(C(=O)O)CC3)c(C)c2oc1=O | 2.01
O=C(CNc1ccccc1N1CCCC1=O)Nc1cc(Cl)ccc1-n1cncn1 | 8.23

###

The entries below come with measured inhibition values attached.
Target desc: D(2) dopamine receptor (Homo sapiens) (UniProt P14416)
Measurement description: HTS Assay for Allosteric Antagonists of the Human D2 Dopamine Receptor: Primary Screen for Antagonists; note: 0% is about no effect
Condition details: HEK293 TREx D2 cells, calcium flux, dopamine EC80; at 10 µM; stronger effect = higher value
Hit rate of the full screen: of about 340,000 compounds, about 6,900 (2%) were called active. The list comes from a sample in which actives are over-represented; it also holds close analogues and randomly drawn compounds.
Measure: inhibition

Compound | Result
CC(=O)c1ccc(S(=O)(=O)Nc2ccc(-c3ccc4nncn4n3)cc2)cc1 | 12.5% (inactive)
COc1ccccc1NC(=O)CN(c1ccccc1OC)S(=O)(=O)c1ccccc1 | -0.319% (inactive)
CCOC(=O)C1CCCN(CCSc2ccc(C)cc2)C1 (stereo not given) | 43.5% (active)
CCOC(=O)C(C)N(c1ccccc1Cl)S(C)(=O)=O (stereo not given) | -9.97% (inactive)
c1ccc(CC2CCN(c3nc4ccccc4n4cnnc34)CC2)cc1 | 37.6% (active)
CC(=O)Nc1cccc(C(=O)OCC(=O)Nc2nnc(-c3ccccc3)o2)c1 | -0.603% (inactive)
CCCCN(CCCC)CC(O)Cn1c2ccccc2c(=O)c2ccccc21 (stereo not given) | 0.545% (inactive)
O=C(Nc1cccc(C(=O)NC2CC2)c1)c1ccc(F)c(S(=O)(=O)N2CCOCC2)c1 | -7.88% (inactive)
CC(=O)c1c(C)c[nH]c1C | 31.1% (active)
c1ccc2c(c1)OCC(CNc1ncnc3nc[nH]c13)O2 (stereo not given) | -3.03% (inactive)
CC(=O)Nc1ccc(NC(=O)C(C)OC(=O)C2CC(=O)N(CCc3ccccc3)C2)cc1 (stereo not given) | -0.386% (inactive)
Cc1ccc(OCCCC(=O)Nc2ccc3c(c2)OCCO3)cc1 | -2.09% (inactive)
COCCNc1nnc(SCC(=O)NNC(=O)c2ccco2)s1 | -27.3% (inactive)
CSc1ccccc1C(=O)OCC(=O)N1CCN(C(C)=O)CC1 | 0.24% (inactive)
Brc1ccccc1CN1CCC(Cc2ccccc2)CC1 | 17.7% (inactive)
CCOC(=O)Nc1ccc(S(=O)(=O)N(C)C(C)C)cc1 | 2.07% (inactive)
CCOC(=O)C1CCCN(Cc2nc(N)nc(Nc3ccc(C)cc3)n2)C1 (stereo not given) | 12.9% (inactive)
COc1ccc(C(=O)OCC(=O)Nc2cccc(C(C)=O)c2)cc1OC | 113% (active)
CCOC(=O)c1c(Cc2ccc(Cl)cc2)c[nH]c1C | -4.64% (inactive)
NS(=O)(=O)c1ccc(NC(=O)COC(=O)CCc2c[nH]c3ccccc23)cc1 | 2.49% (inactive)
CC(=O)Nc1ccc(S(=O)(=O)NC(C)C(=O)OCCOc2ccc(F)cc2)cc1 (stereo not given) | 8.18% (inactive)
CC(=O)c1c(C)[nH]c(C(=O)COc2ccc3c(C)cc(=O)oc3c2)c1C | 1.65% (inactive)
COc1ccc(C2(C)ON(c3ccccc3C(F)(F)F)C2=O)cc1 (stereo not given) | -4.74% (inactive)
CS(=O)(=O)N(CC(O)Cn1c2ccccc2c2ccccc21)c1cccc2ccccc12 (stereo not given) | 31.2% (active)
c1ccc(-c2cc3c(NCC4COc5ccccc5O4)ncnc3s2)cc1 (stereo not given) | 31.8% (active)
O=C(OCc1nnc(-c2ccccc2)o1)c1cc(=O)[nH]c2ccccc12 | 6.34% (inactive)
O=C(COc1ccccc1Cl)N1N=C(c2cccs2)CC1c1ccco1 (stereo not given) | 5.49% (inactive)
S=C(Nc1cccc(Cl)c1)Nc1ccc2cn[nH]c2c1 | -2.72% (inactive)
S=C(Nc1cccc(Cl)c1)Nc1ccc2c(c1)OCCO2 | 3.88% (inactive)
O=C(CSc1ccccc1)Nc1cccc(S(=O)(=O)N2CCOCC2)c1 | 12.8% (inactive)
O=C(CCNS(=O)(=O)c1ccccc1)NCCCc1ccccc1 | 21% (inactive)
COc1ccc(C(=O)OCC(=O)NCCCc2ccccc2)cc1OC | 7.85% (inactive)
CCOC(=O)Cc1csc(SCC(=O)Nc2ccc(C)cc2F)n1 | 0.767% (inactive)
CCN(CC)S(=O)(=O)c1ccc(N2CCOCC2)c(NC(=O)c2ccc(=O)n(C)n2)c1 | -40.6% (inactive)
Cc1ccc(OCCNC(=O)CCNS(=O)(=O)c2ccc(Br)cc2)cc1 | 23.7% (inactive)
O=c1c2ccccc2ccc2ccc(P(=O)(O)O)cc12 | 1.32% (inactive)
CCOC(=O)C1CCCN(C(=O)COc2ccc(N(C)S(=O)(=O)c3ccc(C)cc3)cc2)C1 (stereo not given) | 15.8% (inactive)
COc1ccc(CNC(=O)COC(=O)c2c(C)nn(-c3ccccc3)c2C)cc1OC | 5.14% (inactive)
O=C(CCNS(=O)(=O)c1ccccc1)NCCSc1ccc(Br)cc1 | 45.1% (active)
Cc1csc(NC(=S)Nc2cccc(Cl)c2)n1 | 32.1% (active)
O=C(c1ccccc1)c1ccc2nc(N3CCCCC3)c3nncn3c2c1 | -2.11% (inactive)
CN(Cc1cccs1)C(=O)CN1C(=O)c2ccccc2S1(=O)=O | -30.6% (inactive)
O=C1C=C(c2cc(C(F)(F)F)cc(C(F)(F)F)c2)C[C@@H](c2ccc3c(c2)OCO3)C1 | 8.46% (inactive)
O=C(CCNC(=O)c1ccccc1Cl)NCc1ccco1 | -26.5% (inactive)
Cc1ccc(NC(=O)C(c2ccccc2)N2CCN(C(=O)c3ccco3)CC2)cc1 (stereo not given) | -0.875% (inactive)

From: PubChem BioAssay AID485344
